Listing of entries alongside the reported Activity.
Assay: Binding affinity to fragment antigen binding portion of mouse-human chimeric 93F3 antibody assessed as relative signal by ELISA
Peptide text beside a SMILES is read from it.

# compound, Activity
data = [
    ("CC(C)C[C@H](NC(=O)[C@H](Cc1cnc[nH]1)NC(=O)[C@H](Cc1c[nH]c2ccccc12)NC(=O)[C@@H]1CCCN1C(=O)[C@@H](N)CS)C(=O)N[C@@H](CC(C)C)C(=O)N1CCC[C@H]1C(=O)N[C@@H](Cc1ccccc1)C(=O)N[C@@H](CS)C(=O)O (H-CPWHLLPFC-OH)", 1),
    ("CC(C)C[C@@H](NC(=O)[C@H](Cc1ccc(O)cc1)NC(=O)[C@@H](N)Cc1c[nH]c2ccccc12)C(=O)N1CCC[C@H]1C(=O)N[C@@H](CC(=O)O)C(=O)N[C@@H](CC(N)=O)C(=O)N1CCC[C@H]1C(=O)N[C@@H](CO)C(=O)N[C@H](C(=O)N[C@@H](Cc1c[nH]c2ccccc12)C(=O)N[C@@H](Cc1cnc[nH]1)C(=O)N[C@H](C(=O)O)[C@@H](C)O)[C@@H](C)O", 1),
    ("CC(C)C[C@H](NC(=O)[C@H](C)NC(=O)[C@H](Cc1cnc[nH]1)NC(=O)[C@@H](NC(=O)[C@H](CC(C)C)NC(=O)[C@@H]1CCCN1C(=O)[C@H](CO)NC(=O)[C@@H](N)CS)[C@@H](C)O)C(=O)N[C@@H](CS)C(=O)O (H-CSPLTHALC-OH)", 0.2),
    ("C[C@H](O)[C@H](NC(=O)[C@@H]1CCCN1C(=O)[C@H](Cc1ccccc1)NC(=O)[C@H](Cc1c[nH]c2ccccc12)NC(=O)[C@H](Cc1c[nH]c2ccccc12)NC(=O)[C@@H]1CCCN1C(=O)[C@@H](N)CS)C(=O)N[C@@H](CCC(N)=O)C(=O)N[C@@H](CS)C(=O)O", 0.2),
    ("CC(C)C[C@H](NC(=O)[C@H](Cc1c[nH]c2ccccc12)NC(=O)[C@H](Cc1cnc[nH]1)NC(=O)[C@@H](NC(=O)[C@H](Cc1ccccc1)NC(=O)[C@@H]1CCCN1C(=O)[C@@H](NC(=O)[C@@H](N)CS)[C@@H](C)O)[C@@H](C)O)C(=O)N[C@@H](CS)C(=O)O (H-CTPFTHWLC-OH)", 0.1),
]

---

Assay: Binding affinity to fragment antigen binding portion of mouse-human chimeric 93F3 antibody assessed as relative signal by ELISA in presence of 10 uM 2-acetylcyclohexanone
Peptide text beside a SMILES is read from it.

# compound, Activity
rows = [
    ("CC(C)C[C@H](NC(=O)[C@H](Cc1cnc[nH]1)NC(=O)[C@H](Cc1c[nH]c2ccccc12)NC(=O)[C@@H]1CCCN1C(=O)[C@@H](N)CS)C(=O)N[C@@H](CC(C)C)C(=O)N1CCC[C@H]1C(=O)N[C@@H](Cc1ccccc1)C(=O)N[C@@H](CS)C(=O)O (H-CPWHLLPFC-OH)", 0.8),
    ("C[C@H](O)[C@H](NC(=O)[C@@H]1CCCN1C(=O)[C@H](Cc1ccccc1)NC(=O)[C@H](Cc1c[nH]c2ccccc12)NC(=O)[C@H](Cc1c[nH]c2ccccc12)NC(=O)[C@@H]1CCCN1C(=O)[C@@H](N)CS)C(=O)N[C@@H](CCC(N)=O)C(=O)N[C@@H](CS)C(=O)O", 1),
    ("CC(C)C[C@H](NC(=O)[C@H](Cc1c[nH]c2ccccc12)NC(=O)[C@H](Cc1cnc[nH]1)NC(=O)[C@@H](NC(=O)[C@H](Cc1ccccc1)NC(=O)[C@@H]1CCCN1C(=O)[C@@H](NC(=O)[C@@H](N)CS)[C@@H](C)O)[C@@H](C)O)C(=O)N[C@@H](CS)C(=O)O (H-CTPFTHWLC-OH)", 0.1),
    ("CC(C)C[C@@H](NC(=O)[C@H](Cc1ccc(O)cc1)NC(=O)[C@@H](N)Cc1c[nH]c2ccccc12)C(=O)N1CCC[C@H]1C(=O)N[C@@H](CC(=O)O)C(=O)N[C@@H](CC(N)=O)C(=O)N1CCC[C@H]1C(=O)N[C@@H](CO)C(=O)N[C@H](C(=O)N[C@@H](Cc1c[nH]c2ccccc12)C(=O)N[C@@H](Cc1cnc[nH]1)C(=O)N[C@H](C(=O)O)[C@@H](C)O)[C@@H](C)O", 0.7),
    ("CC(C)C[C@H](NC(=O)[C@H](C)NC(=O)[C@H](Cc1cnc[nH]1)NC(=O)[C@@H](NC(=O)[C@H](CC(C)C)NC(=O)[C@@H]1CCCN1C(=O)[C@H](CO)NC(=O)[C@@H](N)CS)[C@@H](C)O)C(=O)N[C@@H](CS)C(=O)O (H-CSPLTHALC-OH)", 0.2),
]

---

Assay: Binding affinity to mouse-human chimeric antibody 93F3
readout.kind: Kd (µM)

# molecule, assay.result
measured = [
    ("CC(=O)CC(=O)CCc1ccccc1", 1),
]

---

Assay: Binding affinity to fragment antigen binding portion of mouse-human chimeric 93F3 antibody assessed as relative signal by ELISA in presence of 10 uM 5-{[4-(3,5-dioxohexyl)phenyl]amino}-5-oxopentanoic acid
Peptide text beside a SMILES is read from it.
// reported Activity per item

# compound, Activity
data = [
    ("C[C@H](O)[C@H](NC(=O)[C@@H]1CCCN1C(=O)[C@H](Cc1ccccc1)NC(=O)[C@H](Cc1c[nH]c2ccccc12)NC(=O)[C@H](Cc1c[nH]c2ccccc12)NC(=O)[C@@H]1CCCN1C(=O)[C@@H](N)CS)C(=O)N[C@@H](CCC(N)=O)C(=O)N[C@@H](CS)C(=O)O", 0.1),
    ("CC(C)C[C@H](NC(=O)[C@H](Cc1c[nH]c2ccccc12)NC(=O)[C@H](Cc1cnc[nH]1)NC(=O)[C@@H](NC(=O)[C@H](Cc1ccccc1)NC(=O)[C@@H]1CCCN1C(=O)[C@@H](NC(=O)[C@@H](N)CS)[C@@H](C)O)[C@@H](C)O)C(=O)N[C@@H](CS)C(=O)O (H-CTPFTHWLC-OH)", 1),
    ("CC(C)C[C@H](NC(=O)[C@H](C)NC(=O)[C@H](Cc1cnc[nH]1)NC(=O)[C@@H](NC(=O)[C@H](CC(C)C)NC(=O)[C@@H]1CCCN1C(=O)[C@H](CO)NC(=O)[C@@H](N)CS)[C@@H](C)O)C(=O)N[C@@H](CS)C(=O)O (H-CSPLTHALC-OH)", 1),
    ("CC(C)C[C@@H](NC(=O)[C@H](Cc1ccc(O)cc1)NC(=O)[C@@H](N)Cc1c[nH]c2ccccc12)C(=O)N1CCC[C@H]1C(=O)N[C@@H](CC(=O)O)C(=O)N[C@@H](CC(N)=O)C(=O)N1CCC[C@H]1C(=O)N[C@@H](CO)C(=O)N[C@H](C(=O)N[C@@H](Cc1c[nH]c2ccccc12)C(=O)N[C@@H](Cc1cnc[nH]1)C(=O)N[C@H](C(=O)O)[C@@H](C)O)[C@@H](C)O", 0.1),
    ("CC(C)C[C@H](NC(=O)[C@H](Cc1cnc[nH]1)NC(=O)[C@H](Cc1c[nH]c2ccccc12)NC(=O)[C@@H]1CCCN1C(=O)[C@@H](N)CS)C(=O)N[C@@H](CC(C)C)C(=O)N1CCC[C@H]1C(=O)N[C@@H](Cc1ccccc1)C(=O)N[C@@H](CS)C(=O)O (H-CPWHLLPFC-OH)", 0.1),
]

---

Activity for assorted compounds
Experiment: Binding affinity to fragment antigen binding portion of mouse-human chimeric 93F3 antibody assessed as relative signal by ELISA in presence of 10 uM 6-(4-nitrophenyl)hexane-2,4-dione
Peptide text beside a SMILES is read from it.
readout.kind: Activity

# compound, readout.kind, assay.result
data = [
    ("CC(C)C[C@@H](NC(=O)[C@H](Cc1ccc(O)cc1)NC(=O)[C@@H](N)Cc1c[nH]c2ccccc12)C(=O)N1CCC[C@H]1C(=O)N[C@@H](CC(=O)O)C(=O)N[C@@H](CC(N)=O)C(=O)N1CCC[C@H]1C(=O)N[C@@H](CO)C(=O)N[C@H](C(=O)N[C@@H](Cc1c[nH]c2ccccc12)C(=O)N[C@@H](Cc1cnc[nH]1)C(=O)N[C@H](C(=O)O)[C@@H](C)O)[C@@H](C)O", "Activity", 0.1),
    ("CC(C)C[C@H](NC(=O)[C@H](C)NC(=O)[C@H](Cc1cnc[nH]1)NC(=O)[C@@H](NC(=O)[C@H](CC(C)C)NC(=O)[C@@H]1CCCN1C(=O)[C@H](CO)NC(=O)[C@@H](N)CS)[C@@H](C)O)C(=O)N[C@@H](CS)C(=O)O (H-CSPLTHALC-OH)", "Activity", 0.2),
    ("C[C@H](O)[C@H](NC(=O)[C@@H]1CCCN1C(=O)[C@H](Cc1ccccc1)NC(=O)[C@H](Cc1c[nH]c2ccccc12)NC(=O)[C@H](Cc1c[nH]c2ccccc12)NC(=O)[C@@H]1CCCN1C(=O)[C@@H](N)CS)C(=O)N[C@@H](CCC(N)=O)C(=O)N[C@@H](CS)C(=O)O", "Activity", 0.1),
    ("CC(C)C[C@H](NC(=O)[C@H](Cc1cnc[nH]1)NC(=O)[C@H](Cc1c[nH]c2ccccc12)NC(=O)[C@@H]1CCCN1C(=O)[C@@H](N)CS)C(=O)N[C@@H](CC(C)C)C(=O)N1CCC[C@H]1C(=O)N[C@@H](Cc1ccccc1)C(=O)N[C@@H](CS)C(=O)O (H-CPWHLLPFC-OH)", "Activity", 0.2),
    ("CC(C)C[C@H](NC(=O)[C@H](Cc1c[nH]c2ccccc12)NC(=O)[C@H](Cc1cnc[nH]1)NC(=O)[C@@H](NC(=O)[C@H](Cc1ccccc1)NC(=O)[C@@H]1CCCN1C(=O)[C@@H](NC(=O)[C@@H](N)CS)[C@@H](C)O)[C@@H](C)O)C(=O)N[C@@H](CS)C(=O)O (H-CTPFTHWLC-OH)", "Activity", 0.1),
]
